What follows is a collection of SI value DENV (CC50/EC50) values obtained with DENV (Dengue virus type 2, strain New Guinea C).
Number, no unit, nothing else.

Solved cases below.
CCC[S+](=O)([O-])Nc1ccc(F)c(C(=O)c2c[nH]c3ncc(-c4ccc(Cl)cc4)cc23)c1F ... 4.3
C=C(C)[C@@]12O[C@@H]1[C@@]1(C)C(=CC2=O)CC[C@@H](OC(C)=O)[C@@H]1C ... 14
OC1C=C2C3CN(Cc4cc5c(cc43)OCO5)C2CC1O (centres unmarked) ... 16
Cc1ccc2c(c1)Cc1c(C(=O)NN3CCCCC3)nn(-c3ccc(Cl)cc3Cl)c1-2 ... 16

Please look at the following compound next.
I'm curious: which SI value DENV (CC50/EC50) was measured for Cc1[nH]c2ccccc2c1C1=C(NCCc2ccc(F)cc2)C(=O)N(C)C1=O tested on DENV (Dengue virus type 2, strain New Guinea C)?
24

The reported measurements were obtained from paper PMC8765781.
